Cited source: ChEMBL document CHEMBL2321860

Target: Adenosine receptor A3 (Homo sapiens)
Sequence (P0DMS8 whole entry): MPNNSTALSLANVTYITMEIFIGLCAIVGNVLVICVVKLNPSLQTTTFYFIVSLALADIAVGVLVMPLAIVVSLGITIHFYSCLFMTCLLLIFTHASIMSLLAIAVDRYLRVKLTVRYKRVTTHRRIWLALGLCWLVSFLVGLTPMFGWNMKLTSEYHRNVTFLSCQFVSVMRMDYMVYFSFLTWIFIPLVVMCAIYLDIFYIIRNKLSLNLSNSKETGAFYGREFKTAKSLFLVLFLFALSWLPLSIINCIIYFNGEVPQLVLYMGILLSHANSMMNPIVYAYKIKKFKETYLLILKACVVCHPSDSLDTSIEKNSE
Assay: Inhibition of human A3 adenosine receptor transfected in CHO cells assessed as inhibition of forskolin-induced cyclic AMP production after 10 mins by competitive protein binding assay in presence of CI-IB-MECA
recordedEndpoint: IC50 (nM)

a: O=C(Cc1ccccc1)Nc1nc(-c2ccccc2)nc2cn(-c3ccccc3)nc12
b: Cc1nc(NC(=O)c2ccccc2)c2nn(-c3ccccc3)cc2n1
Exercise: Which value of IC50 is numerically greater: that of a or that of b ? I would appreciate it if you answered with the label of your choice.
Solution: a
(a: 61 nM, b: 19.7 nM)

* * *

Target: Adenosine receptor A1 (Homo sapiens) (UniProt P30542)
Sequence (whole entry): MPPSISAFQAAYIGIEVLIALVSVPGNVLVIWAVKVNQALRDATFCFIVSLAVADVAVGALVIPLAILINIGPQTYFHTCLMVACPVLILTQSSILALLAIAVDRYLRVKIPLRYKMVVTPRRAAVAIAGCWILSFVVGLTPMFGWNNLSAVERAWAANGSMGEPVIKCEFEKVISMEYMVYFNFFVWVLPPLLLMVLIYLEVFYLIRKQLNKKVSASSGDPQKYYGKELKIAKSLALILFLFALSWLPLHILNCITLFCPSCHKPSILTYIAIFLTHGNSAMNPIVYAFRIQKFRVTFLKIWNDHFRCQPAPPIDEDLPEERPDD
Assay: Displacement of [3H]DPCPX from human A1 adenosine receptor expressed in CHO cells at 1 uM after 120 mins by scintillation counting analysis
Assay type: cell-based
recordedEndpoint: inhibition (%)

In [3]: df
Out[3]:
                                 smilesdata  recordedendpoint  reportedmeasurement
0  COc1ccc(-n2cc3nc(-c4ccccc4)nc(N)c3n2)cc1        inhibition                   12

P: Cc1nc2cn(-c3ccccc3)nc2c(=O)[nH]1
Q: CC(=O)Nc1nc(-c2ccccc2)nc2cn(-c3ccccc3)nc12
Exercise: Which value of inhibition is numerically greater: that of P or that of Q ? I would appreciate it if you answered with the label of your choice.
Solution: Q

P: COc1ccc(-n2cc3nc(-c4ccccc4)nc(NC(=O)c4ccccc4)c3n2)cc1
Q: Cc1nc(NC(=O)Nc2ccccc2)c2nn(-c3ccccc3)cc2n1
Exercise: Which value of inhibition is numerically greater: that of P or that of Q ? I would appreciate it if you answered with the label of your choice.
Solution: P

* * *

Protein target, amino acids: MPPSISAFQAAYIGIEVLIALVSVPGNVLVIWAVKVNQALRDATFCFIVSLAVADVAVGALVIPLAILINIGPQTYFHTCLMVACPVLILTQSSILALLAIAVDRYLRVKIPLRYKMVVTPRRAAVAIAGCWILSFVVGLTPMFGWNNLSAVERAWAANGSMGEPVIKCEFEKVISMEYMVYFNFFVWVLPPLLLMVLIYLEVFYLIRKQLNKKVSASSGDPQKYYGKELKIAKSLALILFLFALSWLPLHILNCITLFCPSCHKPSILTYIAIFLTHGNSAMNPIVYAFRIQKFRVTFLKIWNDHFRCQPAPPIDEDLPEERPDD
pKi: −log10 of the molar value.
recordedEndpoint: pKi

>>> print(df.to_string())
                             smilesdata  reportedmeasurement
0  Nc1nc(-c2ccccc2)nc2cn(-c3ccccc3)nc12                 7.12

a: Cc1nc(NC(=O)Cc2ccccc2)c2nn(-c3ccccc3)cc2n1
b: Cc1nc(N)c2nn(-c3ccccc3)cc2n1
Exercise: Could you tell me which of these two has the smaller pKi figure? First: a Second: b I would appreciate it if you answered with the label of your choice.
Solution: a
